target: pooled human IgG
Please go through the items and note down their Enzyme Activity Endpoint Assay (purified): scIgG.
Express it in ng/µL; write the number only.

Given the protein PRT-146 (protein) MANQEIRYSEVTPYHIKTVWTKGVTPPANFTQGEDVFHAPYVANQGWYDITKTFNGKDDLLCGAATAGNMLHWWFDQNKDQIKRYLEEHPEKQKINFNGEQMFDVKEAIDTKNHQLDSKLFEYFKEKAFPYLSTKHLGVFPDHVIDMFINGYRLSLTNHGPTPVKEGSKDPRGGIFDAVFTRGDQSKLLTSRHDFKEKTLNDISQLIKQELQSGKALGLSHTYANVRINHVINLWGADFDAEGNLEAIYVTDSDSNASIGMKKYFVGKNSAGKVAISAKEIKEDNIGAQVLGLFTLSTGQDSWNQTN , what is its reported Enzyme Activity Endpoint Assay (purified): scIgG?
0

Any idea what Enzyme Activity Endpoint Assay (purified): scIgG was measured for PRT-160 (protein) MANQEIRYSEVTPYHVTTVWTDGVKPPTDFIKGEDVFHAPYKAHQGWYDITKTFNGKDDLLCGAATAGNMLHWWFDQNKDQIKRYLEEHPEKQKINFNGEQMFDVKEAIDTKNHQLDSKLFEYFKEKAFPYLSTKHLGVFPDHVIDMFINGYRLSLTNHGPTPVKEGSKDPRGGIFDAVFTRGDQSKLLTSRHDFKEKNLKEISDLIKKELQEGKALGLSHTYANVRINHVINLWGADFDSNGNLKAIYVTDSDSNASIGMKKYFVGVNSAGKVAISAKEIKEDNIGAQVLGLFTLSTGQDSWNQTN ?
0
